Catalogue of inhibition at 30 µM values
- TEST_SYSTEM: autotaxin (Homo sapiens)
- TEST: Autotaxin inhibitor screening assay (phosphodiesterase activity, p-nitrophenol cleaved from bis-(p-nitrophenyl) phosphate, absorbance 410 nm)
- Type: biochemical
- REPORTED_CONDITIONS: pH 9, compound at 30 μM; BNPP 3 mM, pH 9.0, 37° C., 30 minutes; read-out: Inhibition

Consider the worked cases shown below.
O=C(NCc1cc(F)ccc1F)c1ccc(CC2Cc3cc(O)ccc3C2=O)cc1 (stereo not shown): < 50%
O=C(O)c1ccc(COc2ccc3c(c2)C/C(=C\c2cc(Cl)cc(Cl)c2)C3=O)cc1: > 80%
CNC(=O)c1ccc(COc2ccc3c(c2)C/C(=C\c2cc(Cl)cc(Cl)c2)C3=O)cc1: > 80%
O=C(O)c1ccc(CC2CCc3cc(OCCc4ccc(F)cc4)ccc3C2=O)cc1 (stereo not shown): > 80%

Req: What value of measured inhibition at 30 µM is listed for O=C(NO)c1ccc(COc2ccc3c(c2)C/C(=C\c2cc(Cl)cc(Cl)c2)C3=O)cc1 ?
Resp: 50 to 80%

Req: Field entry: O=C1c2cc(O)ccc2CC1CC1CCN(C(=O)OCc2cc(Cl)cc(Cl)c2)CC1 (stereo not shown)
Resp: < 50%

Req: Same for O=C(O)c1ccc(/C=C2\Cc3ccc(OCc4ccc(F)c(F)c4)cc3C2=O)cc1
Resp: < 50%

* * *

- TEST_SYSTEM: autotaxin (Homo sapiens, UniProt Q13822)
- TEST: Autotaxin inhibitor screening assay (phosphodiesterase activity, p-nitrophenol cleaved from bis-(p-nitrophenyl) phosphate, absorbance 410 nm)
- Format: biochemical
- REPORTED_CONDITIONS: pH 9, compound at 30 μM; BNPP 3 mM, pH 9.0, 37° C., 30 minutes; read-out: Inhibition
Recorded inhibition at 30 µM for the following molecules

O=C(OCc1ccc(F)c(F)c1)c1ccc(CC2CCc3cc(OCc4ccc(F)c(F)c4)ccc3C2=O)cc1 (stereo not shown): > 80%
O=C(Nc1ccc2c(c1)C/C(=C\c1ccc(C(=O)O)cc1)C2=O)OCc1ccccc1: < 50%
O=C(OCc1cc(F)c(F)cc1F)c1ccc(CC2CCc3cc(O)ccc3C2=O)cc1 (stereo not shown): > 80%

Turning to the following molecule.
Req: Observed inhibition at 30 µM on autotaxin (Homo sapiens, UniProt Q13822) for CN(Cc1cc(F)c(F)cc1F)C(=O)c1ccc(CC2CCc3cc(O)ccc3C2=O)cc1 (stereo not shown) , please.
Resp: 50 to 80%

* * *

- TEST_SYSTEM: autotaxin (Homo sapiens)
- TEST: Autotaxin inhibitor screening assay (phosphodiesterase activity, p-nitrophenol cleaved from bis-(p-nitrophenyl) phosphate, absorbance 410 nm)
- Assay type: biochemical
- REPORTED_CONDITIONS: pH 9, compound at 30 μM; BNPP 3 mM, pH 9.0, 37° C., 30 minutes; read-out: Inhibition
ASSAY_METRIC: inhibition at 30 µM

Here's what some known entries look like.
O=C(OCc1cc(F)c(F)cc1F)c1ccc(CC2Cc3ccc(O)cc3C2=O)cc1 (centres unmarked) [Compound 34]: 50 to 80%
O=C1/C(=C/c2ccc(C(F)(F)F)cc2)Cc2ccc(OCc3ccc(F)c(F)c3)cc21 [Compound 6]: < 50%
O=C1/C(=C/c2ccc(OCCc3ccc(F)cc3)cc2)CCc2cc(O)ccc21 [Compound 100]: < 50%
O=C(O)c1ccc(COc2ccc3c(c2)C/C(=C\c2ccc(Cl)cc2Cl)C3=O)cc1 [Compound 19]: > 80%

Req: Return reported inhibition at 30 µM; argument: O=C(O)COc1ccc(COc2ccc3c(c2)C/C(=C\c2cc(Cl)cc(Cl)c2)C3=O)cc1 [Compound 131]
Resp: > 80%

Req: Follow-up entry: O=C1c2ccc(O)cc2CCC1Cc1ccc(OCCOc2ccc(F)cc2F)cc1 (centres unmarked) [Compound 102]
Resp: 50 to 80%

Req: Thanks! And O=C(Nc1ccc(CC2CCc3cc(O)ccc3C2=O)cc1)Nc1cc(Cl)cc(Cl)c1 (centres unmarked) [Compound 118] ?
Resp: < 50%

Req: And then O=C1/C(=C/c2ccc(OCCOc3ccc(F)cc3F)cc2)CCc2cc(O)ccc21 [Compound 101] , what is it?
Resp: < 50%

* * *

Parameter: inhibition at 30 µM. Scope: all listed entries.
- TEST_SYSTEM: autotaxin (Homo sapiens, UniProt Q13822)
- TEST: Autotaxin inhibitor screening assay (phosphodiesterase activity, p-nitrophenol cleaved from bis-(p-nitrophenyl) phosphate, absorbance 410 nm)
- Type: biochemical
- REPORTED_CONDITIONS: pH 9, compound at 30 μM; BNPP 3 mM, pH 9.0, 37° C., 30 minutes; read-out: Inhibition

O=C1/C(=C/c2ccc(C(F)(F)F)cc2)CCc2cc(OCc3ccc(F)c(F)c3)ccc21: 50 to 80%
O=C(O)c1ccc(COc2ccc3c(c2)C/C(=C\CCc2cc(Cl)cc(Cl)c2)C3=O)cc1: > 80%
O=C(O)c1ccc(CN2CCc3cc(OCc4cc(F)c(F)cc4F)ccc3C2=O)cc1: 50 to 80%

Req: Fill blank: measured inhibition at 30 µM of the compound O=C(O)c1ccc(COc2ccc3c(c2)C/C(=C\c2ccc(Cl)cc2)C3=O)cc1 is ____.
Resp: > 80%

Req: Also O=C(NCc1cc(F)ccc1F)c1ccc(/C=C2\Cc3cc(O)ccc3C2=O)cc1 , if possible.
Resp: 50 to 80%

Req: Then this compound: O=C(NCc1cc(F)ccc1F)c1ccc(CC2CCc3cc(O)ccc3C2=O)cc1 (stereo not drawn)
Resp: < 50%

Req: Likewise for O=C(OCc1cc(F)ccc1F)c1ccc(CC2CCc3cc(OCc4cc(F)ccc4F)ccc3C2=O)cc1 (stereo not drawn) ?
Resp: > 80%

Req: Same again, this time with CS(=O)(=O)c1ccc(COc2ccc3c(c2)C/C(=C\c2cc(Cl)cc(Cl)c2)C3=O)cc1
Resp: < 50%

Req: Can you check O=C(Cc1ccc(F)c(F)c1)Nc1ccc(CC2CCc3cc(O)ccc3C2=O)cc1 (stereo not drawn) next?
Resp: < 50%

* * *

- TEST_SYSTEM: autotaxin (Homo sapiens, UniProt Q13822)
- TEST: Autotaxin inhibitor screening assay (phosphodiesterase activity, p-nitrophenol cleaved from bis-(p-nitrophenyl) phosphate, absorbance 410 nm)
- Format: biochemical
- REPORTED_CONDITIONS: pH 9, compound at 30 μM; BNPP 3 mM, pH 9.0, 37° C., 30 minutes; read-out: Inhibition
The entries below come with measured inhibition at 30 µM values attached.

Would you please look over these solved cases?
O=C(NCc1ccc(F)c(F)c1)c1ccc(CC2CCc3cc(O)ccc3C2=O)cc1 (stereo not drawn) [Compound 59]: 50 to 80%
O=C(O)c1ccc(CC2CCc3c(OCc4cc(F)c(F)cc4F)cccc3C2=O)cc1 (stereo not drawn) [Compound 47]: 50 to 80%
O=C(O)c1ccc(CC2CCc3cc(OCc4cc(F)c(F)cc4F)ccc3C2=O)cc1 (stereo not drawn) [Compound 44]: < 50%
O=C(NCCO)c1ccc(CC2CCc3cc(OCc4cc(F)c(F)cc4F)ccc3C2=O)cc1 (stereo not drawn) [Compound 45]: 50 to 80%
COC(=O)c1ccc(COc2ccc3c(c2)C/C(=C\c2ccc(Cl)c(F)c2)C3=O)cc1 [Compound 88]: > 80%

We next turn to a different molecule, shown below.
Req: Bench note: what inhibition at 30 µM did O=C(Nc1ccc(CC2CCc3cc(O)ccc3C2=O)cc1)OCc1cc(F)c(F)cc1F (stereo not drawn) [Compound 71] show?
Resp: 50 to 80%

* * *

- TEST_SYSTEM: autotaxin (Homo sapiens)
- TEST: Autotaxin inhibitor screening assay (phosphodiesterase activity, p-nitrophenol cleaved from bis-(p-nitrophenyl) phosphate, absorbance 410 nm)
- Assay type: biochemical
- REPORTED_CONDITIONS: pH 9, compound at 30 μM; BNPP 3 mM, pH 9.0, 37° C., 30 minutes; read-out: Inhibition
ASSAY_METRIC: inhibition at 30 µM

O=C(Nc1ccc(CC2CCc3cc(O)ccc3C2=O)cc1)OCc1cc(Cl)cc(Cl)c1 (stereo not drawn) [Compound 70]: > 80%
O=C(O)c1cccc(/C=C2\Cc3ccc(OCc4ccc(F)c(F)c4)cc3C2=O)c1 [Compound 9]: < 50%

Req: Look up inhibition at 30 µM for this compound: O=C(O)c1ccc(COc2ccc3c(c2)C/C(=C\c2cc(F)c(F)c(F)c2)C3=O)cc1 [Compound 18]
Resp: 50 to 80%

Req: Ok, now O=C(Nc1ccc2c(c1)C(=O)N(Cc1ccc(C(F)(F)F)cc1)C2=O)OCc1ccccc1 [Compound 38]
Resp: < 50%

Req: Try the compound O=C(O)c1ccc(COc2ccc3c(c2)C/C(=C\c2ccc(-c4ccc(F)cc4)cc2)C3=O)cc1 [Compound 12]
Resp: > 80%

Req: Would you mind doing O=C(O)c1ccc(COc2ccc3c(c2)C/C(=C\c2ccc(Cl)c(F)c2)C3=O)cc1 [Compound 13] as well?
Resp: > 80%

Req: Same again, this time with O=C(O)c1ccc(COc2ccc3c(c2)C/C(=C\c2cc(F)c(F)cc2F)C3=O)cc1 [Compound 21]
Resp: > 80%

Req: Can you handle O=C1/C(=C/c2cccc(C(F)(F)F)c2)CCc2cc(OCc3ccc(F)c(F)c3)ccc21 [Compound 93] next?
Resp: 50 to 80%

Req: What do we get for O=C(O)c1ccc(COc2ccc3c(c2)C/C(=C\c2ccc(OCCOc4ccc(F)cc4F)cc2)C3=O)cc1 [Compound 16] ?
Resp: 50 to 80%

This collection of values is drawn from patent US11091421B2.
